Tested on: MS2 coat protein
Test: apparent KD of MS2 coat protein, switch OFF state (with FMN for OFF switches, without FMN for ON switches); designed switch direction (-1 OFF switch, 1 ON switch): -1; higher = weaker reporter binding
Conditions: FMN input: 0 or 200 uM; Eterna round: R93 (includes R88 designs)
This section presents sequences with their documented apparent KD of MS2 coat protein values.
resultType: apparent KD of MS2 coat protein (nM)

INSERT INTO assay_data (inputsequence, reading) VALUES
  ('AACUAGUGAGGAUAUACAAGAAAAAAAAAAAAAAUAAAGGGACAUGAGGAUCACCCAUGUAGAAGGCACUAACA [Diamond 69]', 64.9),
  ('ACGUCGGGAGGAUAUACAUGAGGAUCACCCAUGUAAAGCGGGAAAGACGUUUAGUCGAGUAGAAGGCCUGAAGU [JR_Exc003_Sub1709]', 45.5),
  ('AGCUAGUCAGGAUAUACGAACAUGUCAAAAGACGUGAACGGACAUGAGGAUCACCCAUGUAGAAGGGACUAGCA [Diamond 5]', 17.5),
  ('AAAAAGGGAGGAUAUGCAUACACACAAAAAAAAAAAAAAAAACAUGAGGAUCACCCAUGUAGAAGGCCCAAAAA [Dora Explored 4 - Jieux - Exclusion 2]', 14.4),
  ('AAGAAGGUAGGAUAUACUAAAGAAAUAAAAAUAAAUAAAGAACAUGAGGAUCACCCAUGUAGAAGGGCCAAGAA [Merkheperre]', 50.8),
  ('AAAAAGGCAGGAUAUGCAUACCCACGGAAAAAAAGGUUGGGACAUGAGGAUCACCCAUGUAGAAGGGCCAAAAA [Dora Explored 13 - Jieux - Exclusion 2]', 22.4);

Data credit: the supplement of paper PMC9170038
